System: human red blood cells (hRBC)
protocol_text: Hemolysis: hemolytic activity at 100 μg/mL, 1 h at 37° C.
experimental_conditions: red cells of human, 1 h, 100
Experimental: Lyophilized peptides were weighed on a Microbalance (Mettler MT5) and dissolved in sterile water to a final concentration of 1 mg/mL. Stock solutions were kept at +4° C., light protected. The peptides were tested for their hemolytic activity against human red blood cells (hRBC). […] A value of 0% and 100% cell lyses, respectively, was determined by incubation of hRBC in the presence of PBS containing 0.001% acetic acid and 2.5% Triton X-100 in H2O, respectively. […]
Where a SMILES comes first, the peptide text is derived from it. [ ]: non-standard residue; d: D form. Tle = CC(C)(C)[C@H](N)C(=O)O; dDab = NCC[C@@H](N)C(=O)O; Dab = NCC[C@H](N)C(=O)O; Dap = NC[C@H](N)C(=O)O
value_kind: Hemolysis at 100 μg/mL
Just so you know, I need the unit written after the number.

Record CC(C)[C@@H]1NC(=O)[C@@H]2CCCN2C(=O)[C@@H](C)NC(=O)[C@H]([C@@H](C)O)NC(=O)[C@H](CO)NC(=O)[C@H](C(C)(C)C)NC(=O)[C@H](CCN)NC(=O)[C@H](Cc2c[nH]c3ccccc23)NC(=O)[C@H](CCN)NC(=O)[C@@H](CCN)NC(=O)[C@H](CN)NC(=O)[C@H](CCN)NC(=O)[C@H](Cc2ccc(O)cc2)NC(=O)[C@H](CN)NC1=O [Example 45] (cyclo([Dab][Dap][dDab][Dab]W[Dab][Tle]ST[dA]PV[Dap]Y)) , field Hemolysis at 100 μg/mL: 4%
